# Measurement Description: Solubility in aqueous buffers
# Format: physicochemical
# Condition Parameters: aqueous buffer
Measured Property: solubility

>>> print(df.to_string())
                               input_smiles   reading
0  COc1ccc(/C=N/NC(=O)c2cccnc2)c(B2OC(C)(C)C(C)(C)O2)c1  ≥ 300 µM

Query: Returns the measured solubility for the input compound. Input: COc1ccc(/C=N/NC(=O)c2cccnc2)c(O)c1
Reply: ≥ 300 µM

Query: Could you do the same for COc1ccc(/C=N/NC(=O)c2ccncc2)c(O)c1 , please?
Reply: ≤ 50 µM

----------
# Type: binding
# Condition Parameters: 4 μM chelator (2 equivalents), 2 μM calcein-Fe^3+, PBS pH 7.4
Measured Property: calcein fluorescence upon addition of chelator

                         input_smiles        reading
0  COc1ccc(O)c(/C=N/NC(=O)c2ccncc2)c1  more than 90%
1  COc1ccc(/C=N/NC(=O)c2cccnc2)c(O)c1  more than 90%
